Assay: amyloid nucleation score (Sup35N fusion, yeast selection) (log enrichment); library NNK3; higher = more nucleation; inactive = no reads after selection;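 also: zero at mode of non-aggregating sequences after 7 days selection at 30°C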
experimental-endpoint: amyloid nucleation score

Solved cases (5 shown):
Enquiry: Suppose we examine the substance `LLWSCCRGRMYDNMFHGKVK` ; what amyloid nucleation score value has been reported?
Return: inactive

Enquiry: Suppose we examine the substance `VNFILSTAHLL` ; what amyloid nucleation score value has been reported?
Return: inactive

Enquiry: Suppose we examine the substance `REFPRGWLLGLLCFRLYLLE` ; what amyloid nucleation score value has been reported?
Return: inactive

Enquiry: Suppose we examine the substance `NEVDDWFSD` ; what amyloid nucleation score value has been reported?
Return: inactive

Enquiry: Suppose we examine the substance `WSPGESNTLVGVCIEDALRS` ; what amyloid nucleation score value has been reported?
Return: inactive

Continuing:
Enquiry: Suppose we examine the substance `AMVKEFWVDSRHFIDRYSKC` ; what amyloid nucleation score value has been reported?
Return: inactive

Enquiry: Suppose we examine the substance `GVSYSLCLLIGLNRIRMGMV` ; what amyloid nucleation score value has been reported?
Return: inactive

* * *

Experiment: amyloid nucleation score (Sup35N fusion, yeast selection) (log enrichment); library NNK1; higher = more nucleation; inactive = no reads after selection
experimental-endpoint: amyloid nucleation score

Solved cases (8 shown):
Enquiry: Suppose we examine the substance `TVRLTRTRV` ; what amyloid nucleation score value has been reported?
Return: -0.474

Enquiry: Suppose we examine the substance `RDNKLSVAVVMQSYSVGESG` ; what amyloid nucleation score value has been reported?
Return: -0.034

Enquiry: Suppose we examine the substance `VLLRKVKRLNRYHMSTGGL` ; what amyloid nucleation score value has been reported?
Return: inactive

Enquiry: Suppose we examine the substance `DLKVNCVGEWADRLFMFSFG` ; what amyloid nucleation score value has been reported?
Return: 0.683

Enquiry: Suppose we examine the substance `GLNSDGLWLLSLNTRKSRAH` ; what amyloid nucleation score value has been reported?
Return: -0.349

Enquiry: Suppose we examine the substance `HSAALWIVWR` ; what amyloid nucleation score value has been reported?
Return: -0.358

Enquiry: Suppose we examine the substance `VIKFWSQ` ; what amyloid nucleation score value has been reported?
Return: 0.536

Enquiry: Suppose we examine the substance `RALAVSRMRAYPSLRGEYLN` ; what amyloid nucleation score value has been reported?
Return: 0.076

Continuing:
Enquiry: Suppose we examine the substance `EHLLCVSRCMLSSNLVTNCA` ; what amyloid nucleation score value has been reported?
Return: -0.113

Enquiry: Suppose we examine the substance `SYQLSSVMDLAWMTHSTFGS` ; what amyloid nucleation score value has been reported?
Return: 1.8

Enquiry: Suppose we examine the substance `RGDLTPDARSYGPCSIHRWR` ; what amyloid nucleation score value has been reported?
Return: inactive

Enquiry: Suppose we examine the substance `SAVINFLRSQKLLNCGMGVT` ; what amyloid nucleation score value has been reported?
Return: -0.529

Enquiry: Suppose we examine the substance `TPSTQLALWAIYFHRRLFES` ; what amyloid nucleation score value has been reported?
Return: -0.54

* * *

Assay: amyloid nucleation score (Sup35N fusion, yeast selection) (log enrichment); library NNK3; higher = more nucleation; inactive = no reads after selection
experimental-endpoint: amyloid nucleation score

Enquiry: Suppose we examine the substance `FYYIVIFSNHWPSCILCRGR` ; what amyloid nucleation score value has been reported?
Return: 0.792

Enquiry: Suppose we examine the substance `MDAISFQRDMMFNGGFFCAM` ; what amyloid nucleation score value has been reported?
Return: inactive

Enquiry: Suppose we examine the substance `FALSVVQG` ; what amyloid nucleation score value has been reported?
Return: inactive

Enquiry: Suppose we examine the substance `FRLILM` ; what amyloid nucleation score value has been reported?
Return: inactive

Enquiry: Suppose we examine the substance `TFEEFESTARLGFHERGDFY` ; what amyloid nucleation score value has been reported?
Return: inactive

Continuing:
Enquiry: Suppose we examine the substance `YHMVCNCDWVGVAFYVSYGR` ; what amyloid nucleation score value has been reported?
Return: 1.91

Enquiry: Suppose we examine the substance `LNQYLYFVRDMGDVMFCLYF` ; what amyloid nucleation score value has been reported?
Return: inactive

Enquiry: Suppose we examine the substance `TVWELM` ; what amyloid nucleation score value has been reported?
Return: -0.068

Enquiry: Suppose we examine the substance `ITNVRSVRFLYSSTYYHIVL` ; what amyloid nucleation score value has been reported?
Return: 1.83
